Assayed system: T1, S15-extra cellular domain (ECD) monomer (human, UniProt Q6ZMC9 20-263)
T1 construct: also called S15 monomer protein
T1 sequence: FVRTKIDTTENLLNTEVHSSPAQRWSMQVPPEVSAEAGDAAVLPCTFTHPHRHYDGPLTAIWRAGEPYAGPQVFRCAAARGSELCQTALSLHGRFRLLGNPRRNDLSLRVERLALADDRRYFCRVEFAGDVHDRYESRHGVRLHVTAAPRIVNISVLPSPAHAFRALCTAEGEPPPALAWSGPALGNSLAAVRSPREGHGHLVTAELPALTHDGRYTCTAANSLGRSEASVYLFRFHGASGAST
Measurement notes: BLI (Octet RED96), mAb on anti-human Fc sensors, S15-ECD monomer in solution, global fit
Quantity measured: koff

Binder: 77A (antibody, V domains shown, Mouse anti-human Siglec-15 mAb; also called NC77) VH: EVQLQQSGAELVRPGASVKLSCTASGFNIKDDYMHWVKQRPEQGLEWIGCIDPENGDTEYASKFQGKATITADTSSNTVYLQLSSLTSEDTAVYYCTTYVGFGYWGQGTLVTVSA VL: DVLMTQSPLSLPVSLGDQASISCRSSQNIVHSNGNTYLEWYLKKPGQSPKLLIYKVSNRFSGVPDRFSGSGSGTDFTLKISRVEAEDLGMYYCFQGSHVPLTFGAGTKLELK
Data value: 0.000143 s⁻¹
--
Binder: 8H8 (antibody, V domains shown, Mouse anti-human Siglec-15 mAb) VH: EVQLLETGGGLVQPGGSRGLSCEGSGFTFSGFWMSWVRQTPGKTLEWIGDINSDGSAINYAPSIKDRFTIFRDNDKNTLYLQMNNVRSEDTATYFCVRYDDYGYFDVWGTGTTVTVSS VL: QAVVTQESALTTSPGETVTLTCRSSSGAVTTGNFANWVQEKPDHLFTGLIGGTNNRAPGVPARFSGSLIGDKAALTITGAQTEDEAIYFCALWYSNHWVFGGGTKLTVL
Data value: 0.00027 s⁻¹
